Tested on: BT-474 Tam1
Test: relative IC50 (midpoint of fitted logistic curve, plateau may be below 50% inhibition; CellTiter-Glo viability); higher = less potent
Settings: 4-OH-tamoxifen in medium 1 µM; 72 h
ATTRIBUTE MEASURED: relative IC50 (nM)

[
  {
    "SMILES": "Cc1cc(Nc2cc(CN3CCOCC3)c3nc(C)c(Cc4ccc(Cl)cc4F)n3n2)n[nH]1",
    "relative IC50 [nM]": 329
  }
]

[I] CC(C)C[C@H](NC(=O)[C@H](Cc1ccccc1)NC(=O)c1cnccn1)B(O)O
[II] Oc1ccc2c(c1)CC[C@H](c1ccccc1)[C@@H]2c1ccc(OCCN2CCCC2)cc1
[in] // select label with min value of measured relative IC50 from [ I , II ] // return label of chosen record
[out] I
